system: Calu-3 cells; test: MTT antiproliferative assay; type: cell-based; details: Homo sapiens, Calu-3, 48 h, read-out: Antiproliferative activity IC50, Calu-3
Measurement Kind: pIC50
Hey, just a heads up that pIC50 is the negative log base 10 of the concentration in molar.

stdin: Entry under review: Nc1ccccc1NC(=O)c1ccc(N(CCCl)CCCl)cc1 . Reported pIC50?
stdout: 5.24

###

target: HDAC9 (Homo sapiens, UniProt Q9UKV0)
Sequence (Q9UKV0 whole entry): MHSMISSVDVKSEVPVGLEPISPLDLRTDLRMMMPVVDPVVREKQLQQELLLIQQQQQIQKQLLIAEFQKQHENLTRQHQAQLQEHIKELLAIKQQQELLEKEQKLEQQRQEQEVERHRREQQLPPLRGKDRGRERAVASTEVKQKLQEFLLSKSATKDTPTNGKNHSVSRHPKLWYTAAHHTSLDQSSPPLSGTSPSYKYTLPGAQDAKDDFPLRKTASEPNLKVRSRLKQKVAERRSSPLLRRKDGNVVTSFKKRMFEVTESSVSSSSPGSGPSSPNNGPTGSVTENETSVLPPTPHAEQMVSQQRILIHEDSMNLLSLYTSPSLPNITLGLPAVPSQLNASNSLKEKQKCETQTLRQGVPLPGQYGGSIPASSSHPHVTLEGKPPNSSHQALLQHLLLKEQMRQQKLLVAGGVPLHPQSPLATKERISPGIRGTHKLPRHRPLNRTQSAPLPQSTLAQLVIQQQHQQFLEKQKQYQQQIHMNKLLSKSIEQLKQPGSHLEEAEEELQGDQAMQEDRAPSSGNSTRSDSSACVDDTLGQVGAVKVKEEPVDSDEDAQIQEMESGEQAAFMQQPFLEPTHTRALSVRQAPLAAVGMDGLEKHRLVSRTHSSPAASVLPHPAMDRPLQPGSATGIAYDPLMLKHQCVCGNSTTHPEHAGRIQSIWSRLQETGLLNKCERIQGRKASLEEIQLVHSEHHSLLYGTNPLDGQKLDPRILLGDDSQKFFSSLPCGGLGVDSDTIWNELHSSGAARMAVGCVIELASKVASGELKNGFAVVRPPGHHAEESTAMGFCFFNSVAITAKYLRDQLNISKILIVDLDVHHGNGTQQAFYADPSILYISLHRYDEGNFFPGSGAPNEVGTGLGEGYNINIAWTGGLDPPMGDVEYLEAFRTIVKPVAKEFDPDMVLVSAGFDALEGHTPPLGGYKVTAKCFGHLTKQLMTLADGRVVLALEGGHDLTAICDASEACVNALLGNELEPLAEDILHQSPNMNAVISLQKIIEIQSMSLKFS
Measurement Kind: IC50

stdin: Entry under review: Nc1ccccc1NC(=O)c1ccc(N(CCCl)CCCl)cc1 . Reported IC50?
stdout: > 5 µM
